MEASURED_TARGET: P-450cam mutant Y96A (Pseudomonas putida, UniProt P00183, Y97A)
Sequence (P00183 2-415 Y97A): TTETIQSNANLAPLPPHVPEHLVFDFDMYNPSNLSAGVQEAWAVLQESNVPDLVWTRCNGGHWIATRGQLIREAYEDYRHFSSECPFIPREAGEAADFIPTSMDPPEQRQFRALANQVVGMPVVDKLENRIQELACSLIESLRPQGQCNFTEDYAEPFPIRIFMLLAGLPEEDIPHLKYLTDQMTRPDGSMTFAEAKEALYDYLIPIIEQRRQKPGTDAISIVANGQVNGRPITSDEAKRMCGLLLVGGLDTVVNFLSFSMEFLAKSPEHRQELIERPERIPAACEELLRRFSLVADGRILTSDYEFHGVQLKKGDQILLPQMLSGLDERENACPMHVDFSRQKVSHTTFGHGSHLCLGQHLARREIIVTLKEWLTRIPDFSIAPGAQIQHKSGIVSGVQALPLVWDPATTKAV
Assay type: biochemical
Set-up: key: Those substrates where oxidation has been demonstrated by means of NADH turnover are marked with a + sign
MEASURE: NADH turnover?

Answered cases to consult:
molecular_string=CCCCC measured_target="P-450cam mutant Y96A (Pseudomonas putida, UniProt P00183, Y97A)" value_observed=+
molecular_string=CCCCCC measured_target="P-450cam mutant Y96A (Pseudomonas putida, UniProt P00183, Y97A)" value_observed=+
molecular_string=c1ccc(Cc2ccccc2)cc1 measured_target="P-450cam mutant Y96A (Pseudomonas putida, UniProt P00183, Y97A)" value_observed=+
molecular_string=c1ccc2c(c1)ccc1ccccc12 measured_target="P-450cam mutant Y96A (Pseudomonas putida, UniProt P00183, Y97A)" value_observed=+
molecular_string=CCCCCCCCC measured_target="P-450cam mutant Y96A (Pseudomonas putida, UniProt P00183, Y97A)" value_observed=+
molecular_string=C1CCCCC1 measured_target="P-450cam mutant Y96A (Pseudomonas putida, UniProt P00183, Y97A)" value_observed=+

// query NADH turnover? value for entry CCCCCCCC
+

Next compound up: CCCCCCC
+

====

MEASURED_TARGET: P-450cam mutant Y96A (Pseudomonas putida, UniProt P00183, Y97A)
METHOD_NOTES: Kapp (dissociation constant), substrate binding, Y96A
ASSAY_CONDITIONS: Y96A compared to wild-type
MEASURE: dissociation constants (Kapp) / affinity, in words

compound=O=C1C2CC3CC(C2)CC1C3 value_observed=increased
compound=C1C2CC3CC1CC(C2)C3 value_observed=reduced
compound="CC12CCC(CC1=O)C2(C)C (centres unmarked)" value_observed=increased
compound=C1CC2CCC1C2 value_observed=reduced

====

Below, each entry is listed with its recorded Total products.
MEASURED_TARGET: P450cam mutant Y96F, C334A (Pseudomonas putida, UniProt P00183, C335A/Y97F)
Construct: reconstituted with putidaredoxin and putidaredoxin reductase
Sequence (P16640 whole entry): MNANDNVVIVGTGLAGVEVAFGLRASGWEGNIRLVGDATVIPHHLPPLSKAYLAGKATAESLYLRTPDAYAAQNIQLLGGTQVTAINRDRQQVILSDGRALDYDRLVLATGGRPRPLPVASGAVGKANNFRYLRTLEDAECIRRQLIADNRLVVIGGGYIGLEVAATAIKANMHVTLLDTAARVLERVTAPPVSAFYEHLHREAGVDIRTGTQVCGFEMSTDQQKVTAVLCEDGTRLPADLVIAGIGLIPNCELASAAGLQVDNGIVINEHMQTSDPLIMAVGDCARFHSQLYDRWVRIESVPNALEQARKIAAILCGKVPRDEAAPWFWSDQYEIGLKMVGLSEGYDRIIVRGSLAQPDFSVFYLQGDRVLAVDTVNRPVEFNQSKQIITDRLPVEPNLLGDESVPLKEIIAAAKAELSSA
Sequence (P00183 2-415 Y97F/C335A): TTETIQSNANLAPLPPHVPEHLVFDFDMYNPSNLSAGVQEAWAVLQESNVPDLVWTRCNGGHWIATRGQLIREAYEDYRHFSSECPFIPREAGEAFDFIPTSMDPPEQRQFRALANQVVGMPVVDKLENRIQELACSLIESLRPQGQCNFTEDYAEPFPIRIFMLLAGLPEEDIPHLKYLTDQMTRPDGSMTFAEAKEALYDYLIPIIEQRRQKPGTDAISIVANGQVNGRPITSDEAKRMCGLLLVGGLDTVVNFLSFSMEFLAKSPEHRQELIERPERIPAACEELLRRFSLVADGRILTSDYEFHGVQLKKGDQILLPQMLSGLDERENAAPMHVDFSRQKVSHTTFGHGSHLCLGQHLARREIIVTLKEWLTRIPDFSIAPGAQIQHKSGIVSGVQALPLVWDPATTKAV
Sequence (P00259 whole entry, further chain): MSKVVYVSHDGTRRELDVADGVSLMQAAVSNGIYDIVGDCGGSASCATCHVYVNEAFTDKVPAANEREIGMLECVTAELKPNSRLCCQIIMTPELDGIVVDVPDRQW
Assay type: biochemical, P. putida
The answer is to be given in area/10^5; state only the numeric part.

molecule="c1ccc(C2CCCCC2)cc1 [Cyclohexylbenzene]" measure="Total products" value_observed=1.1

Name the recorded Total products for c1ccc2ccccc2c1 [Naphthalene] .
2.4

====

MEASURED_TARGET: P450cam mutant F87A-F96G-F193A (C334A) (Pseudomonas putida, UniProt P00183, C335A/F194A/F88A/Y97G)
Construct: reconstituted with putidaredoxin and putidaredoxin reductase
Format: biochemical, P. putida
Experimental: […] The enzymatic reaction was initiated by firstly adding NADH to a total concentration of 2 mM. Further four aliquots of NADH (to increase the NADH concentration by 1 mM each time) were added in intervals of 5 min and the reaction quenched after 30 min by adding 0.5 ml chloroform. The chloroform layer was analysed by gas chromatography. […]
Total products reference

Worked set:
molecular_string=c1ccc2c(c1)-c1cccc3cccc-2c13 measure="Total products" value_observed="0.2 area/10^6"
molecular_string=c1ccc2c(c1)ccc1ccccc12 measure="Total products" value_observed="0.065 area/10^6"
molecular_string=c1cc2ccc3cccc4ccc(c1)c2c34 measure="Total products" value_observed="0.02 area/10^6"

Query: Total products; subject: c1ccc2ccccc2c1
0.1 area/10^5
